// growth lookup, one value per entry
# System: NCI/ADR-RES ovarian
# ASSAY_NAME: NCI-60 one-dose screen, 48 h (100 = growth as untreated, 0 = no growth, -100 = all killed)
# CONDITION_DESCRIPTION: 10 µM unless noted
About 83,000 compounds went through this panel and 20% of them were active in at least one assay; those are over-represented in the sample as a whole.
Express the result in % but write the number alone.

Below are worked cases with known answers.
Give growth (NCI/ADR-RES ovarian) of the following compound: c1ccc2cc3nc4cc5ccccc5cc4nc3cc2c1
73.4

Give growth (NCI/ADR-RES ovarian) of the following compound: CCOc1ccccc1-c1cc(-c2cccs2)c(C#N)c(=O)[nH]1
76.7

Give growth (NCI/ADR-RES ovarian) of the following compound: COc1ccc(-c2csc(C3=C(O)CN(C(C)C)C3=N)n2)cc1OC
98.5

Give growth (NCI/ADR-RES ovarian) of the following compound: CN1CCN(CC(=O)Nc2nc(-c3cccc(NS(=O)(=O)c4cccc5c(N(C)C)cccc45)c3)cs2)CC1
87.3

Give growth (NCI/ADR-RES ovarian) of the following compound: CCOC(=O)C/C(C)=N\NC(=O)c1ccncc1
98

Further cases:
Give growth (NCI/ADR-RES ovarian) of the following compound: COc1ccc(-c2nc(SC(C)C)nc(NNC(N)=S)c2C#N)cc1
19.6

Give growth (NCI/ADR-RES ovarian) of the following compound: O=C(NCCNc1cc(-c2cn(-c3ccccc3)nc2-c2cccc(O)c2)ccn1)Nc1ccccc1
75.4

Give growth (NCI/ADR-RES ovarian) of the following compound: O=Cc1c[nH]c2ccc(-c3csc4ccccc34)cc12
12.3

Give growth (NCI/ADR-RES ovarian) of the following compound: NC(N)=Nc1nc2ccccc2n2c1nc1ccccc12
63.1

Give growth (NCI/ADR-RES ovarian) of the following compound: COc1ccc(/C=N/C2=C(C#N)C(c3ccc(OC)cc3)c3ccc4ccccc4c3O2)cc1 (stereo unspecified)
45

Give growth (NCI/ADR-RES ovarian) of the following compound: COC(=O)c1ccc(CSc2nnc(-c3c(C)nc4ccc(C)cn34)o2)cc1
89.7
